MEASURED TARGET: T1, 4H344-bN
T1 chain: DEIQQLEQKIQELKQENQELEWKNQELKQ
TEST METHOD NOTES: two-hybrid library CCNG1;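 also: natural log of median RNA to DNA barcode read ratio; higher means stronger binding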
Entries and their interaction score
MEASURED ATTRIBUTE: interaction score

{"columns": ["BINDER", "MEASURED ATTRIBUTE", "VALUE"],
 "data": [
  ["DKIQQLKQENQELEQKNQELKWEIQELEQ [4H2745-bN]", "interaction score", -0.786],
  ["DENQQLEQEIQELEQKIQELKWKNQELKQ [4H1072-bN]", "interaction score", -0.983],
  ["DEIQQLEQKIQELKQENQELEWKNQELKQ [4H344-bN]", "interaction score", 0.297],
  ["DENQQLEQEIQELEQENQELEWKIQELKQ [4H1046-bN]", "interaction score", 0.965],
  ["DKIQQLKQEIQELEQKNQELKWENQELEQ [4H2619-bN]", "interaction score", 0.255],
  ["DKIQQLKQEIQELEQEIQELEWKNQELKQ [4H2568-bN]", "interaction score", -0.22]
]}
